# targetEntity: T1, human GITR (amino acids M1-V241, NCBI Accession #NP_004186.1) expressed on cells (human, UniProt Q9Y5U5 26-241)
# T1 sequence: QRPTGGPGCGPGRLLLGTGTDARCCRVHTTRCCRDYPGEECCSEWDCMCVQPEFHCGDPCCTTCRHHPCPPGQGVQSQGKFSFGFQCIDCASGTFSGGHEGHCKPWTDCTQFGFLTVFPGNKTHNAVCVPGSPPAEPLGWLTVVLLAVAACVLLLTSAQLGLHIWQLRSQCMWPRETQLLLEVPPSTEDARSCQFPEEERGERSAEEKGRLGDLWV
# assayDetails: cell-based or functional assay
readoutLabel: fold activation, T-cell proliferation, 22 nM, non-anchored, donor 2 (fold)
Write the number in fold without appending the unit.

Value of measured fold activation, T-cell proliferation, 22 nM, non-anchored, donor 2 for the entry H4H14521P (antibody, human IgG4, V domains shown, human IgG4 (H4H)) VH: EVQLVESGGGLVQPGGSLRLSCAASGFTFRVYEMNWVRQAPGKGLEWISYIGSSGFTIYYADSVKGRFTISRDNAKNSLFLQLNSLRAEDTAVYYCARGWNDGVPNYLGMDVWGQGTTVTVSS VL: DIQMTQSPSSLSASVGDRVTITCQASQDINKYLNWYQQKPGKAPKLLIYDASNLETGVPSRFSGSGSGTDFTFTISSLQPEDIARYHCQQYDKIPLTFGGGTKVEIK : 1.2

Value of measured fold activation, T-cell proliferation, 22 nM, non-anchored, donor 2 for the entry H4H14508P (antibody, human IgG4, V domains shown, human IgG4 (H4H)) VH: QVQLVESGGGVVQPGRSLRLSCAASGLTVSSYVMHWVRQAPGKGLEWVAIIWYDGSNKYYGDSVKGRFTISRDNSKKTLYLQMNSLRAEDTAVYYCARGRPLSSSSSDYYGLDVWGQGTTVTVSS VL: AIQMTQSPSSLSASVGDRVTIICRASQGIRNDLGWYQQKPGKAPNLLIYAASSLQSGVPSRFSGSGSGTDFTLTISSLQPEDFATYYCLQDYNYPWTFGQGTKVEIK : 0.9

The origin of these recorded values is patent US20170355774A1.
